assay: Log D by shake flask method (octanol / PBS pH 7.4, HPLC); type: physicochemical; settings: octanol / PBS pH 7.4, shake flask; read-out: logD
Overview of recorded logD for various compounds
quantity: logD

CCNC(=O)C(=O)CC[C@H](NC(=O)c1cn2ccsc2n1)C(=O)Nc1cccn(CC(=O)N[C@@H]2C[C@@H]3CC[C@H]2C3)c1=O | 1 to 3
CCNC(=O)C(=O)CC[C@H](NC(=O)c1cnc(C(C)C)o1)C(=O)Nc1cccn(CC(=O)NC23CCC(C2)C3)c1=O | < 1
CCNC(=O)C(=O)CC[C@H](NC(=O)c1nncs1)C(=O)Nc1cccn(CC(=O)NC23CC(C2)C3)c1=O | < 1
CCNC(=O)C(=O)CC[C@H](NC(=O)c1cc(C#N)cn1C)C(=O)Nc1cccn(CCCC23CC4CC(CC(C4)C2)C3)c1=O | 3 to 5
CCNC(=O)C(=O)CC[C@H](NC(=O)c1cncn1C)C(=O)Nc1cccn(CC(=O)NC23CC4CC(CC(CC)(C4)C2)C3)c1=O | 1 to 3
CCNC(=O)C(=O)CC[C@H](NC(=O)c1cnc(C)n1C)C(=O)Nc1cccn(CC(=O)NC23CC4CC(C)(CC(C)(C4)C2)C3)c1=O | 1 to 3
CCNC(=O)C(=O)CC[C@H](NC(=O)c1nc2ccccc2s1)C(=O)Nc1cccn(CC(=O)N[C@@H]2C[C@@H]3CC[C@H]2C3)c1=O | 1 to 3
CCNC(=O)C(=O)CC[C@H](NC(=O)c1snnc1CO)C(=O)Nc1cccn(CC2C3CC4CC(C3)CC2C4)c1=O (stereo partly shown) | 1 to 3
CCNC(=O)C(=O)CC[C@H](NC(=O)c1cnc(NC(C)=O)s1)C(=O)Nc1cccn(CC(=O)NC23CC(C2)C3)c1=O | < 1
CCNC(=O)C(=O)CC[C@H](NC(=O)c1ncn(C)n1)C(=O)Nc1cccn(CC(=O)N[C@@H]2C[C@@H]3C[C@H]([C@H]2C)C3(C)C)c1=O | 1 to 3
CCNC(=O)C(=O)CC[C@H](NC(=O)c1cncn1C)C(=O)Nc1cccn(CC(=O)NC23CC4CC(CC(C)(C4)C2)C3)c1=O | 1 to 3
CCNC(=O)C(=O)CC[C@H](NC(=O)c1cnc(Cl)n1C)C(=O)Nc1cccn(CC(=O)NC23CC4CC(C)(CC(C)(C4)C2)C3)c1=O | 1 to 3
CCNC(=O)C(=O)CC[C@H](NC(=O)c1cn[nH]n1)C(=O)Nc1cccn(CC(=O)NC2CC3CCC2CC3)c1=O (stereo partly shown) | < 1
CCNC(=O)C(=O)CC[C@H](NC(=O)c1cc2ccccc2n1CC)C(=O)Nc1cccn(CC(=O)NC23CC(C2)C3)c1=O | 1 to 3
CCNC(=O)C(=O)CC[C@H](NC(=O)c1cc2c(Br)cccc2o1)C(=O)Nc1cccn(CC(=O)NC2C3CC4CC(C3)CC2C4)c1=O (stereo partly shown) | 3 to 5
CCNC(=O)C(=O)CC[C@H](NC(=O)c1cncn1C)C(=O)Nc1cccn(CC(=O)NC23CC4CC(CC(F)(C4)C2)C3)c1=O | < 1
